- Protocol description: chemical genetic growth profiling, strain panel (AID 1159580);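 further: tested at 20 µM; growth read once vehicle control cultures reached saturation at 30 °C; 1 = growth at the plate median or of vehicle wells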
- Condition parameters: S. cerevisiae deletion strains, growth OD, locus YOR080W, strain dia2
The campaign covered roughly 5,500 compounds. About 2,000 (36%) were called active. Roughly 18% stayed inconclusive and do not appear here. No stated cut-off is given here; in the data, active means normalized growth mostly below about 0.91 (no sharp cut-off); inconclusive means no clear call, values can overlap the other calls; inactive means mostly above about 0.92. The list shows a part of the results.
Choose the fitting class; nothing outside active, inactive is accepted.

Would you please look over these solved cases?
| Compound | Class |
| --- | --- |
| CCN(CC)CCOCCOC(=O)C1(c2ccccc2)CCCC1 | inactive |
| CC(C)=CCc1c2c(c3occ(-c4ccc(O)c(O)c4)c(=O)c3c1O)C=CC(C)(C)O2 | inactive |
| O=C(OCc1ccccc1)c1ccccc1 | inactive |
| C/C=C\C1=C(C(=O)O)N2C(=O)C(NC(=O)C(N)c3ccc(O)cc3)C2SC1 (stereo not drawn) | inactive |
| COc1ccccc1OCC(O)CO (stereo not drawn) | inactive |
| CC1(C)CC2C1CC[C@]1(C)CCC3C(C(=O)O)CC(=O)O[C@@]32C1 (stereo partly drawn) | active |
| NCC(N)C(=O)c1ccccc1 (stereo not drawn) | inactive |
| CN(C)[C@@H]1C(=O)C(C(N)=O)=C(O)[C@@]2(O)C(=O)C3=C(O)c4c(O)ccc(Cl)c4[C@@](C)(O)[C@H]3C[C@@H]12 | inactive |

Task: Please let me know the test result on file for CC(C)=CCc1c2c(c3occ(-c4ccc(O)cc4)c(=O)c3c1O)C=CC(C)(C)O2 .
Result: inactive

Task: NC(=O)c1cccnc1 ?
Result: inactive

----------
- Protocol description: chemical genetic growth profiling, strain panel (AID 1159580);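 further: tested at 20 µM; growth read once vehicle control cultures reached saturation at 30 °C; 1 = growth at the plate median or of vehicle wells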
- Condition parameters: S. cerevisiae deletion strains, growth OD, locus YEL037C, strain rad23, stronger effect = lower value
In all, about 5,500 compounds went through this assay and about 2,000 (36%) were called active. About 18% were inconclusive and are not listed. The list shows a part of the results.
Property name: normalized growth
Respond numerically, and do not add a unit to the figure.

Reference set, count: 3
| Compound | normalized growth |
| --- | --- |
| CC(C)CCCC(C)[C@H]1CCC2C3CC=C4CC(=O)CC[C@]4(C)C3CC[C@@]21C (stereo partly specified) | 0.986 |
| N[C@@H](CCC(=O)N[C@@H](CS)C(=O)NCC(=O)O)C(=O)O | 0.995 |
| CC(=O)Nc1ccc(S(=O)(=O)Nc2onc(C)c2C)cc1 | 0.971 |

Task: I would be grateful if you could share the reported normalized growth for CCCN(CCC)S(=O)(=O)c1ccc(C(=O)O)cc1 .
Result: 0.993

Task: // same read-out, input: CCN1CCN(C(=O)NC(C(=O)N[C@@H]2C(=O)N3[C@@H]2SC(C)(C)[C@@H]3C(=O)O)c2ccccc2)C(=O)C1=O (stereo partly specified)
Result: 0.997

----------
- Protocol description: chemical genetic growth profiling, strain panel (AID 1159580);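 further: tested at 20 µM; growth read once vehicle control cultures reached saturation at 30 °C; 1 = growth at the plate median or of vehicle wells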
- Condition parameters: S. cerevisiae deletion strains, growth OD, locus YER111C, strain swi4, stronger effect = lower value
About 2,000 (36%) of roughly 5,500 compounds were called active. Roughly 18% stayed inconclusive and do not appear here. The list shows a part of the results.
Note to self: normalized growth under 1 means MET, ties and anything higher get NOT MET.

| Molecule | Class |
| --- | --- |
| COc1ccc([C@@H]2CC(=O)c3c(O)cc(O[C@@H]4O[C@H](CO[C@H]5O[C@@H](C)[C@H](O)[C@@H](O)[C@H]5O)[C@@H](O)[C@H](O)[C@H]4O)cc3O2)cc1O | MET |

Task: Determine whether this molecule shows normalized growth lower than 1 (ties excluded): C=C1c2c(Cl)ccc(O)c2C(O)=C2C(=O)[C@]3(O)C(O)=C(C(N)=O)C(=O)[C@@H](N(C)C)[C@@H]3[C@@H](O)[C@H]12
Result: MET

Task: Here is the next molecule: COC1CC2CCC(C)C(O)(O2)C(=O)C(=O)N2CCCCC2C(=O)OC(C(C)CC2CCC(O)C(OC)C2)CC(=O)C(C)/C=C(\C)C(O)C(OC)C(=O)C(C)CC(C)/C=C/C=C/C=C/1C (centres undefined)
Result: MET

Task: What about this molecule? CS(=O)(=O)c1ccc([C@@H](O)[C@@H](CO)NC(=O)C(Cl)Cl)cc1
Result: NOT MET

Task: Further, for NS(=O)(=O)c1cc2c(cc1Cl)NC(CSCc1ccccc1)=NS2(=O)=O ?
Result: NOT MET

Task: Also Cc1cc(=O)oc2cc(O)cc(O)c12 ?
Result: MET

Task: Moving on to the next molecule: COc1cc(C(C)=O)cc(OC)c1O
Result: NOT MET

Task: Entry to check: CC1=CC(=O)c2c(O)cccc2C1=O
Result: MET
